assay procedure: chemical genetic growth profiling, strain panel (AID 1159580);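 also: tested at 20 µM; growth read once vehicle control cultures reached saturation at 30 °C; 1 = growth at the plate median or of vehicle wells; lower values mean less growth of the strain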
condition: S. cerevisiae deletion strains, growth OD, locus YPR025C, strain CCL1
The whole screen tested about 5,500 compounds, of which about 2,000 (36%) were called active. Inconclusive results (about 18%) are left out. Rule as the data show it: active = normalized growth mostly below about 0.91 (no sharp cut-off); inconclusive = no clear call, values can overlap the other calls; inactive = mostly above about 0.92. This is one part of the list.
Entry note: the call must match one of 1.0 for active, 0.0 for inactive

**Query** Outcome logged for N#Cc1c2ccccc2nc2ccccc12 in this assay:
**Result** 1.0

**Query** What did the test return for O=C(NCCNc1ncc(C(F)(F)F)cc1Cl)C(F)(F)Sc1ccccc1 ?
**Result** 0.0

**Query** Called result for CCCc1nc(-c2ccccn2)[nH]c(=O)c1CC1CC1
**Result** 0.0

**Query** For Cc1csc(NC(=O)Nc2ccc(C(F)(F)F)cc2)c1Cl , which call appears in the assay record?
**Result** 0.0

**Query** Given Clc1cc(Cl)cc(-c2nc(SCc3ccc(Cl)cc3Cl)n[nH]2)c1 , state the outcome it received in this test.
**Result** 0.0

**Query** Look up the recorded call for Cc1csc(NC(=O)Nc2ccc(C(F)(F)F)cc2)c1 in this test.
**Result** 0.0

**Query** Check the results log: what was the call for Nc1ccccc1C(=O)N/N=C\c1cc(Br)ccc1O ?
**Result** 0.0

**Query** Could you kindly confirm the outcome this assay logged for Brc1ccc2[nH]c3c(c2c1)CCC3 ?
**Result** 0.0

**Query** Returns: the outcome recorded for COc1cccc(NC(=S)NC2CC(C)CC(C)(C)C2)c1 (stereo not given) in this assay.
**Result** 0.0

**Query** Dear all, I need the recorded test outcome for Cc1ccc(S(=O)(=O)n2c(Sc3ccc([N+](=O)[O-])cc3[N+](=O)[O-])nc3cc(C)ccc32)cc1 , thank you.
**Result** 0.0

**Query** Field: outcome | Entry: O=C(NCCNc1ncc(Cl)cc1C(F)(F)F)C(F)(F)Sc1ccccc1
**Result** 0.0

**Query** For S=C(Nc1ccc(Cl)cc1)SCc1c(Cl)cccc1Cl , what call appears in the results of this test?
**Result** 0.0

**Query** I'd appreciate the recorded outcome for O=[N+]([O-])c1cnc(Sc2nnc(SCc3cccc(C(F)(F)F)c3)s2)s1 from this test.
**Result** 1.0

**Query** # lookup: test call for Cc1ccc(C)c(CSc2nc(C3CCCCC3)c(C#N)c(=O)[nH]2)c1
**Result** 0.0

**Query** // return assay outcome for CC(C)(C)C(=O)N(Cc1cccnc1)Cc1ccc(Cl)cc1Cl
**Result** 0.0

**Query** // param item: Cc1oc(C(C)(C)C)cc1-c1cc(N)n(-c2ccc(I)cc2)n1 ; yields the recorded call
**Result** 0.0

**Query** # lookup: test call for O=S(=O)(c1ccc(Cl)cc1)N(Cc1cccnc1)Cc1ccc(Cl)cc1Cl
**Result** 0.0

**Query** Recorded test call requested for Fc1ccc(NC(=S)N2CCCN(Cc3ccc(Cl)cc3Cl)CC2)cc1
**Result** 0.0

**Query** Hello, I am checking results. What call was entered for CC(C)Cc1ccc(C(C)C(=O)Nc2nn(C)c3ccccc23)cc1 (stereo not given) ?
**Result** 0.0

**Query** Name the outcome recorded for Cc1nc(-c2ccccn2)nc(N(C)Cc2ccccc2)c1Cl in the assay.
**Result** 0.0

**Query** Write down the call the test reported for this compound. Item: OC1CCN(c2cc(C(F)(F)F)nc3cc(Cl)cc(Cl)c23)CC1
**Result** 0.0

**Query** Please indicate how the test categorized CSc1n[nH]c(-c2cc(C(F)(F)F)cc(C(F)(F)F)c2)n1 .
**Result** 0.0

**Query** // param item: S=C(NNC(=S)NC1CC2C=CC1C2)Nc1ccc(Br)c(Cl)c1 (stereo not given) ; yields the recorded call
**Result** 0.0

**Query** Recorded call for O=C(NCC(c1ccccc1)c1c[nH]c2ccccc12)c1ccc(C(F)(F)F)cc1 (stereo not given) ?
**Result** 0.0

**Query** Just curious, what result did Cc1nc(-c2cccnc2)nc(NCc2ccccc2)c1Cl get here?
**Result** 0.0
